# test: Pharmacokinetics in mice plasma following intravenous administration
# Assay type: in vivo, CD-1 mice
# statedConditions: male, CD-1, mouse, dose 1 mg/kg
measuredEndpoint: AUC(0-t)
Answer with the number, then the unit.

Reported AUC(0-t) ( "CC(C)N1CCCc2c(-c3nc(N[C@H]4CCC5(CC5)NC4)ncc3C(F)(F)F)c[nH]c2C1=O" ) = 363 ng·h/mL

* * *

# measurementTarget: CDK13/Cyclin K (Homo sapiens, UniProt Q14004)
# Sequence (Q14004 whole entry): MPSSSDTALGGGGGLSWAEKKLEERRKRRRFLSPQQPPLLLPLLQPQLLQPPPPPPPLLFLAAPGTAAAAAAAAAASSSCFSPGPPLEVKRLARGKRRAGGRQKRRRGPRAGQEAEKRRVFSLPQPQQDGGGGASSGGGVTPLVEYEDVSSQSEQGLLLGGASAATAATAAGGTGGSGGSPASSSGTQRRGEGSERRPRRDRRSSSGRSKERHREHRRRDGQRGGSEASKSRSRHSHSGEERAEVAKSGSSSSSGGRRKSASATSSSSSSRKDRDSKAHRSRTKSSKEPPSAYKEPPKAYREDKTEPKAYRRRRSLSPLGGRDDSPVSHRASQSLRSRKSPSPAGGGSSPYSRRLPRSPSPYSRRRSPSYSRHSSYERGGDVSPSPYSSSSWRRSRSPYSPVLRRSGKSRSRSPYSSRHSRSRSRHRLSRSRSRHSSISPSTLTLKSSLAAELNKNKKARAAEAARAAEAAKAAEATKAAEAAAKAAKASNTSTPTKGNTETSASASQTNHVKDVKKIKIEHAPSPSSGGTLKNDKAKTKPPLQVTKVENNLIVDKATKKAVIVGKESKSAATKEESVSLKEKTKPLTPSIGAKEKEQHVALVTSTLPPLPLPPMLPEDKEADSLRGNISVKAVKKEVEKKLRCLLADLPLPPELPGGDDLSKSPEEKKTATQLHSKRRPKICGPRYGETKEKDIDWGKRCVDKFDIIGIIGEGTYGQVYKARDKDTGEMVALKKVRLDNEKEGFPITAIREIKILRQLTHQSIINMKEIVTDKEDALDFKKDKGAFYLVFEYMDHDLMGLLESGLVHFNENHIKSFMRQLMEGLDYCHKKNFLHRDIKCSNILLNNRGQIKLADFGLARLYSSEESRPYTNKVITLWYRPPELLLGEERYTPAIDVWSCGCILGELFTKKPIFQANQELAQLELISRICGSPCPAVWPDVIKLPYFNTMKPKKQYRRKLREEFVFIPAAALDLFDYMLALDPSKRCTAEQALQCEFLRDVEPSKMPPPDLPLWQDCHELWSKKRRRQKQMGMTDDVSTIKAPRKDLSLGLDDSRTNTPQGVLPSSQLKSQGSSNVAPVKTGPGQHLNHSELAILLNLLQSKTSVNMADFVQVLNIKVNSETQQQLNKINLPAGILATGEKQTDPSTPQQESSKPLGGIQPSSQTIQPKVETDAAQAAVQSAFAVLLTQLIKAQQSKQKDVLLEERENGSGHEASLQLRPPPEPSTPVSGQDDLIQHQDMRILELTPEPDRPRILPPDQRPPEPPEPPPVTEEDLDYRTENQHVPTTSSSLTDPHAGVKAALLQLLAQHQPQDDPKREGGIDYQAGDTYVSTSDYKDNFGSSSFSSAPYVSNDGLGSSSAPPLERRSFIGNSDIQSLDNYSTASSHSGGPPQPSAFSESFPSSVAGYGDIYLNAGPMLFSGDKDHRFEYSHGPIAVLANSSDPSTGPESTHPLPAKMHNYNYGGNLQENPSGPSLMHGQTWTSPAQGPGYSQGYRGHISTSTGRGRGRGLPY
# Sequence (O75909 whole entry partner): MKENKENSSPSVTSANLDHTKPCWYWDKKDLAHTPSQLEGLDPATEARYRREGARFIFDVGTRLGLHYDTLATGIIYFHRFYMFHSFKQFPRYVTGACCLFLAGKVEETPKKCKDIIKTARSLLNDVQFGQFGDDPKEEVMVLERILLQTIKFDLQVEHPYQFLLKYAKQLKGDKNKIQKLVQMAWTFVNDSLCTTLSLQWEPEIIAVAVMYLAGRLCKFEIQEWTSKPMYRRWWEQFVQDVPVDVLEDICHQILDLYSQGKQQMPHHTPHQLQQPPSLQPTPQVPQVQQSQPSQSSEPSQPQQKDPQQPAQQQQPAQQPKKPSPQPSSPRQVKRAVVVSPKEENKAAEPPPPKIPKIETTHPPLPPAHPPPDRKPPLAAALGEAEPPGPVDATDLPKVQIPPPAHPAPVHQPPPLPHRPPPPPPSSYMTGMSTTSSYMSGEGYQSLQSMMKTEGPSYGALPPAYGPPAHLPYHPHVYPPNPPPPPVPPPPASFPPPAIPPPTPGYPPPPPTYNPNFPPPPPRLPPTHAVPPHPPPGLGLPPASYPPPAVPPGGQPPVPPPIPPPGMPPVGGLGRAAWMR
# test: Inhibition of CDK13/Cyclin K kinase activity (ADP-Glo)
# Assay type: biochemical
# statedConditions: mean value from several measurements; read-out: IC50 CDK13/Cyclin K
measuredEndpoint: IC50

Consider the following illustrative entries.
INSERT INTO results (molsmiles, observed) VALUES
  ('Cn1nnc(-c2cc(-c3nc(N[C@H]4CCCNC4)ncc3C(F)(F)F)c[nH]2)n1', '5 to 50 nM'),
  ('CC1(C)CC[C@H](Nc2ncc(C(F)(F)F)c(-c3c[nH]c4c3CCCN(C3CC3)C4=O)n2)CN1', '> 200 nM'),
  ('CC(C)N1CCCc2c(-c3nc(N[C@H]4CCC(C)(C)NC4)ncc3C(F)(F)F)c[nH]c2C1=O', '> 200 nM'),
  ('CN1CCCc2c(-c3nc(N[C@H]4CCCNC4)ncc3C(F)(F)F)c[nH]c2C1=O', '5 to 50 nM'),
  ('CN1CCCc2c(-c3nc(N[C@H]4CCC5(CC5)NC4)ncc3C(F)(F)F)c[nH]c2C1=O', '50 to 200 nM'),
  ('CN1CCCc2c(-c3nc(N[C@H]4CCC(C)(C)NC4)ncc3C(F)(F)F)c[nH]c2C1=O', '50 to 200 nM'),
  ('O=C1c2[nH]cc(-c3nc(N[C@H]4CCC5(CC5)NC4)ncc3C(F)(F)F)c2CCCN1C1CC1', '50 to 200 nM'),
  ('Cn1cc(-n2ccc3c(-c4nc(N[C@H]5CCC(C)(C)NC5)ncc4C(F)(F)F)c[nH]c3c2=O)cn1', '5 to 50 nM');

Reported IC50 ( "CC(C)N1CCCc2c(-c3nc(N[C@H]4CCC5(CC5)NC4)ncc3C(F)(F)F)c[nH]c2C1=O" ) = > 200 nM

* * *

Each entry below carries its reported pIC50.
# Tested on: MDA-MB-468 (triple negative breast cancer)
# test: BrdU incorporation into DNA in MDA-MB-468 cells
# Format: cell-based
# statedConditions: Homo sapiens, mean of multiple measurements
Reminder that pIC50 means the negative base-10 logarithm of the concentration expressed in mol/L.

INSERT INTO results (molsmiles, observed) VALUES
  ('CC(C)N1CCCc2c(-c3nc(N[C@H]4CCC(C)(C)NC4)ncc3C(F)(F)F)c[nH]c2C1=O', 7.55),
  ('CC1(C)CC[C@H](Nc2ncc(C(F)(F)F)c(-c3c[nH]c4c3CCCN(C3CC3)C4=O)n2)CN1', 7.62),
  ('CN1CCCc2c(-c3nc(N[C@H]4CCC(C)(C)NC4)ncc3C(F)(F)F)c[nH]c2C1=O', 7.85);

From here, focus on the item given below.
Reported pIC50 ( "O=C1c2[nH]cc(-c3nc(N[C@H]4CCC5(CC5)NC4)ncc3C(F)(F)F)c2CCCN1C1CC1" ) = 8.70

* * *

# test: Pharmacokinetics in mice plasma following oral administration
# Type: in vivo, CD-1 mice
# statedConditions: male, CD-1, mouse, mice plasma, dose 10 mg/kg
Each entry below carries its reported Tmax.
A number alone suffices; assume min.

Consider the following illustrative entries.
INSERT INTO measurements (molsmiles, observed) VALUES
  ('CN1CCCc2c(-c3nc(N[C@H]4CCC(C)(C)NC4)ncc3C(F)(F)F)c[nH]c2C1=O', 30),
  ('CC(C)N1CCCc2c(-c3nc(N[C@H]4CCC5(CC5)NC4)ncc3C(F)(F)F)c[nH]c2C1=O', 30),
  ('CC(C)N1CCCc2c(-c3nc(N[C@H]4CCC(C)(C)NC4)ncc3C(F)(F)F)c[nH]c2C1=O', 30),
  ('CC1(C)CC[C@H](Nc2ncc(C(F)(F)F)c(-c3c[nH]c4c3CCCN(C3CC3)C4=O)n2)CN1', 120);

From here, focus on the item given below.
Reported Tmax ( "O=C1c2[nH]cc(-c3nc(N[C@H]4CCC5(CC5)NC4)ncc3C(F)(F)F)c2CCCN1C1CC1" ) = 30

* * *

Each entry below carries its reported clearance.
# test: Pharmacokinetics in mice plasma following intravenous administration
# Assay type: in vivo, CD-1 mice
# statedConditions: male, CD-1, mouse, dose 2 mg/kg
A number alone suffices; assume mL/min/kg.

Reported clearance ( "CC1(C)CC[C@H](Nc2ncc(C(F)(F)F)c(-c3c[nH]c4c3CCCN(C3CC3)C4=O)n2)CN1" ) = 48

Reported clearance ( "CC(C)N1CCCc2c(-c3nc(N[C@H]4CCC(C)(C)NC4)ncc3C(F)(F)F)c[nH]c2C1=O" ) = 29

Reported clearance ( "CN1CCCc2c(-c3nc(N[C@H]4CCC(C)(C)NC4)ncc3C(F)(F)F)c[nH]c2C1=O" ) = 103

Reported clearance ( "O=C1c2[nH]cc(-c3nc(N[C@H]4CCC5(CC5)NC4)ncc3C(F)(F)F)c2CCCN1C1CC1" ) = 21.5

* * *

# test: Passive membrane permeability through PAMPA artificial membrane, pH 7.4
# Format: in vitro ADME
# statedConditions: pH 7.4, 10 μmol, 20 hours at room temperature, mean of multiple measurements, read-out: PAMPA passive permeability Pe
Each entry below carries its reported Papp at 20 h, 10 μmol.

Consider the following illustrative entries.
INSERT INTO results (molecule, measuredendpoint, observed) VALUES
  ('CC1(C)CC[C@H](Nc2ncc(C(F)(F)F)c(-c3c[nH]c4c3CCCN(C3CCCC3)C4=O)n2)CN1 [CDK7_1154]', 'Papp at 20 h, 10 μmol', '5 to 10 ×10⁻⁶ cm/s'),
  ('Cc1ccc(Nc2nc(N[C@H]3CCCNC3)ncc2C(F)(F)F)c(P(C)(C)=O)c1 [CDK7_904]', 'Papp at 20 h, 10 μmol', '< 1 ×10⁻⁶ cm/s'),
  ('Cn1cc(N2CCCc3c(-c4nc(N[C@H]5CCC(C)(C)NC5)ncc4C(F)(F)F)c[nH]c3C2=O)cn1 [CDK7_1122]', 'Papp at 20 h, 10 μmol', '1 to 5 ×10⁻⁶ cm/s'),
  ('Cn1cc(-n2ccc3c(-c4nc(N[C@H]5CCC(C)(C)NC5)ncc4C(F)(F)F)c[nH]c3c2=O)cn1 [CDK7_1123]', 'Papp at 20 h, 10 μmol', '< 1 ×10⁻⁶ cm/s'),
  ('O=C1c2[nH]cc(-c3nc(N[C@H]4CCC5(CC5)NC4)ncc3C(F)(F)F)c2CCCN1C1CC1 [CDK7_1276]', 'Papp at 20 h, 10 μmol', '5 to 10 ×10⁻⁶ cm/s'),
  ('CC1(C)CC[C@H](Nc2ncc(C(F)(F)F)c(-c3c[nH]c4c3CCCN(C3CC3)C4=O)n2)CN1 [CDK7_1225]', 'Papp at 20 h, 10 μmol', '1 to 5 ×10⁻⁶ cm/s'),
  ('O=C1c2[nH]cc(-c3nc(NC4CCCNC4)ncc3C(F)(F)F)c2CCCN1c1nccs1 (centres unmarked) [CDK7_1172]', 'Papp at 20 h, 10 μmol', '1 to 5 ×10⁻⁶ cm/s'),
  ('FC(F)(F)c1cnc(N[C@H]2CCCNC2)nc1-c1c[nH]c(-c2nnnn2C2CC2)c1 [CDK7_1102]', 'Papp at 20 h, 10 μmol', '1 to 5 ×10⁻⁶ cm/s'),
  ('O=C1NCCc2c(-c3nc(N[C@H]4CCCNC4)ncc3C(F)(F)F)c[nH]c21 [CDK7_814]', 'Papp at 20 h, 10 μmol', '< 1 ×10⁻⁶ cm/s'),
  ('CC1(C)CC[C@H](Nc2ncc(C(F)(F)F)c(-c3c[nH]c4c3CCCN(CC3CCCC3)C4=O)n2)CN1 [CDK7_1155]', 'Papp at 20 h, 10 μmol', '5 to 10 ×10⁻⁶ cm/s');

Reported Papp at 20 h, 10 μmol ( Cc1ccc(P(C)(C)=O)c(Nc2nc(N[C@H]3CCCNC3)ncc2C(F)(F)F)c1 [CDK7_903] ) = < 1 ×10⁻⁶ cm/s

Reported Papp at 20 h, 10 μmol ( O=c1c2[nH]cc(-c3nc(N[C@H]4CCCNC4)ncc3C(F)(F)F)c2ccn1C1CC1 [CDK7_1105] ) = < 1 ×10⁻⁶ cm/s

* * *

# measurementTarget: CDK7/Cyclin H/MNAT1 (Homo sapiens, UniProt P50613)
# Sequence (P50613 whole entry): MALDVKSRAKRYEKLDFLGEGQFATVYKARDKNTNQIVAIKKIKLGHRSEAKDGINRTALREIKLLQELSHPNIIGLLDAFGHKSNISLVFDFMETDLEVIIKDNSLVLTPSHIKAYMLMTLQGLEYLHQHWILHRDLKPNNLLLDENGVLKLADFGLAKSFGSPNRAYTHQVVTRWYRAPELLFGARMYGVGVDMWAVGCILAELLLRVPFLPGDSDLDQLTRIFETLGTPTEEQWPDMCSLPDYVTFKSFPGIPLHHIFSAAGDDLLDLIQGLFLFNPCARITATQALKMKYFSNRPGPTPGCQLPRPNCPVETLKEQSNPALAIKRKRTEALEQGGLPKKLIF
# Sequence (P51946 whole entry partner): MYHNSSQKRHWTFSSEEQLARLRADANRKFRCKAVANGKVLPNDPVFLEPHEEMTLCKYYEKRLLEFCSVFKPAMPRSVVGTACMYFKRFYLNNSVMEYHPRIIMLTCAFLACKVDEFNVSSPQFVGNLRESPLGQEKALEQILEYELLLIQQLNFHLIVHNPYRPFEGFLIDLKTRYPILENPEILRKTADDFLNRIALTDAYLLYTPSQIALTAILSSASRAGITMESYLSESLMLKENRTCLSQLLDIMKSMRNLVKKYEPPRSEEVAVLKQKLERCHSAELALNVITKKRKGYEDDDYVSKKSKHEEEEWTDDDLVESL
# Sequence (P51948 whole entry partner): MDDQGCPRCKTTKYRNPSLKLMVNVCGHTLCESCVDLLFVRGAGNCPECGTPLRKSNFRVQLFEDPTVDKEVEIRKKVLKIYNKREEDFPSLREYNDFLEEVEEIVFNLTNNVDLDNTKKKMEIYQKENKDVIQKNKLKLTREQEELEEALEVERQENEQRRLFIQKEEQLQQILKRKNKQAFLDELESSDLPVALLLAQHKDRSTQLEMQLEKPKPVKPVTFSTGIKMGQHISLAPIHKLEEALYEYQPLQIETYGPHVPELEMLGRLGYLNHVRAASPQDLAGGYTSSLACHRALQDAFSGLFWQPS
# test: Inhibition of CDK7/Cyclin H/MNAT1 kinase activity (ADP-Glo)
# Type: biochemical
# statedConditions: mean value from several measurements; read-out: IC50 CDK7/Cyclin H/MNAT
pIC50: −log10 of the molar value.
Each entry below carries its reported pIC50.

Consider the following illustrative entries.
INSERT INTO assay_data (compound, measurementtarget, observed) VALUES
  ('Cn1ccnc1N1CCCc2c(-c3nc(NC4CCCNC4)ncc3C(F)(F)F)c[nH]c2C1=O (stereo not shown)', 'CDK7/Cyclin H/MNAT1 (Homo sapiens, UniProt P50613)', '7.30 to 8.30'),
  ('CN(C)C(=O)c1nc(-c2nc(N[C@H]3CCCNC3)ncc2C(F)(F)F)c[nH]1', 'CDK7/Cyclin H/MNAT1 (Homo sapiens, UniProt P50613)', '7.30 to 8.30');

Reported pIC50 ( "Nc1ccccc1Nc1nc(N[C@H]2CCCNC2)ncc1C(F)(F)F" ) = 6.70 to 7.30

Reported pIC50 ( O=C1c2[nH]cc(-c3nc(NC4CCCNC4)ncc3C(F)(F)F)c2CCCN1c1nccs1 (stereo not shown) ) = > 8.30
